Test system: HOP-92 NSCLC
Assay: NCI tumour cell line growth inhibition, 48 h
Provide the recorded TGI for the entries that follow.

# example entries with known answers
| MOLECULE | ASSAYED TARGET | TGI |
| --- | --- | --- |
| Cc1ccc(OCC2OC(n3cnc4c(N(C)C)nc(Br)nc43)CC2Oc2ccc(C)cc2)cc1 (stereo unspecified) | HOP-92 NSCLC | > 100 µM |
| O=C(N=C1SCCN1C(=O)C(C(F)(F)F)C(F)(F)F)C(C(F)(F)F)C(F)(F)F | HOP-92 NSCLC | > 100 µM |

Items follow; give TGI for each.
1. Clc1ccc(Cc2nc3ccc(CCN4CCN(c5ccccc5)CC4)cc3[nH]2)cc1
2. COc1ccc(C(N)=O)cc1N=NN(C)C
3. O=C1C=C(Br)C(=O)C12CCc1ccccc12 (stereo unspecified)
4. NC(=O)N/N=C/C(/C=N/NC(N)=O)[N+](=O)[O-]
5. O=S(=O)(NCC1CCC(CNc2ccc(Cl)cc2)CC1)c1ccc(-c2ccccc2)cc1 (stereo unspecified)

Response given:
["73.8 µM", "> 100 µM", "27.3 µM", "> 100 µM", "> 50 µM"]

----------
System: SK-MEL-5 melanoma
Assay: NCI tumour cell line growth inhibition, 48 h
Would you please tag the item T when its TGI is 30 µM or above, and F when it is below?

Challenge: Determine whether measured TGI meets or exceeds 30 µM for `COc1ccc(N2C(=Nc3ccccc3)SC(=N/S(=O)(=O)c3ccccc3)/C2=N\S(=O)(=O)c2ccccc2)cc1`
Response given: T

----------
Test system: HCT-116 colon
Test: NCI tumour cell line growth inhibition, 48 h
Provide the recorded TGI for the entries that follow.

| MOLECULE | TGI |
| --- | --- |
| COc1ccc(C(N)=O)cc1N=NN(C)C | > 100 µM |
| NNc1cccc(/C=C/c2ccccc2)cc1=O | > 100 µM |
| COc1ccccc1-c1cc(=O)c2ccccc2[nH]1 | > 100 µM |
| COc1cc(OC)c(OC)cc1/C=C\c1nccc2ccccc12 | 33.4 µM |

Items follow; give TGI for each.
1. C=C1C(=O)OC2CC1C(O)C/C(C)=C/CC/C(C)=C/C(O)CC2C (stereo unspecified)
2. CN(C)C(N)=NC#N
3. CCOC(=O)c1sc2nc(SC)nc3c2c1NC(=O)CN3c1cccc(F)c1
4. O=c1nc(Nc2cccc(Cl)c2)oc2cc(Cl)oc(=O)c12
5. COC(=O)c1cc(NC(=O)c2cc(NC(=O)c3cc([N+](=O)[O-])cn3C)cn2C)cn1C

Response given:
1: 3.33 µM; 2: > 100 µM; 3: 53 µM; 4: 41.3 µM; 5: > 100 µM

----------
System: HL-60(TB) leukemia
Assay: NCI tumour cell line growth inhibition, 48 h
ENDPOINT: TGI (µM)
Answers are plain numbers, in µM.

| COMPOUND | ASSAYED TARGET | UNITS LABEL | TGI |
| --- | --- | --- | --- |
| CN1c2ccccc2N(C)C2C1N(C)c1ccccc1N2C (configuration not stated) | HL-60(TB) leukemia | µM | 7 |

Items follow; give TGI for each.
1. CC(=O)NCCC1CN(C(=O)/C=C\C#C[Si](C)(C)C)c2ccccc21 (configuration not stated)
2. O=C(/C=C/c1cccc(Br)c1)c1cccs1
3. Cc1nc2ccc(Nc3nc(NCCN4CCOCC4)nc(Nc4ccc(F)cc4)n3)cc2n1Cc1ccccc1
4. O=C1C(NCCc2ccc(O)c(O)c2)=CC(=O)c2ncccc21

Response given:
81.3
17.7
4.72
60.3

Items follow; give TGI for each.
1. COc1cccc(C(=O)N2CCc3ccccc32)c1OC
2. CC1=C[C@H]2c3c(c(O)c(O)c4oc5ccccc5c(=O)c34)[C@H](c3cc(O)c(O)c4oc5ccccc5c(=O)c34)[C@H]2C(C)(C)C1
3. O=C(NCCCNc1cc(-c2cn(-c3ccccc3)nc2-c2cccc(O)c2)ccn1)c1ccccc1
4. O=c1nc(Nc2cccc(Cl)c2)oc2cc(Cl)oc(=O)c12

Response given:
91.1
10.8
4.19
55.2

Items follow; give TGI for each.
1. Cc1ccsc1/C=N/Nc1cc(C)c2cccc(C)c2n1
2. O=c1c(SSc2coc3cc(F)ccc3c2=O)coc2cc(F)ccc12
3. N#Cc1cnc2cc(OC[C@@H](O)CO)c(NC(=O)CC3CSSC3)cc2c1Nc1ccc(OCc2cccc(F)c2)c(Cl)c1

Response given:
1. 71.2
2. 54.7
3. 1.47

----------
Tested on: IGROV1 ovarian
Assay: NCI tumour cell line growth inhibition, 48 h
ENDPOINT: TGI

# example entries with known answers
| COMPOUND | TGI |
| --- | --- |
| N#Cc1cnc2cc(OC[C@@H](O)CO)c(NC(=O)CC3CSSC3)cc2c1Nc1ccc(OCc2cccc(F)c2)c(Cl)c1 | 1.11 µM |
| O=C(Nc1cccc(C(F)(F)F)c1)O/N=C(/Cl)CCl | > 100 µM |

Items follow; give TGI for each.
1. O=c1nc(Nc2cccc(Cl)c2)oc2cc(Cl)oc(=O)c12
2. Cn1ncc2c(N)nc(N3CCCCC3)nc21
3. CC(=O)OC1CC2C(C)(C)C(=O)C=C[C@]2(C)C2CCC3(C)C(c4ccoc4)C(=O)[C@H]4O[C@]43[C@]12C (stereo partly specified)

Response given:
["21.1 µM", "> 100 µM", "78.9 µM"]

Items follow; give TGI for each.
1. NCCCn1c2ccccc2c2c3c(c4c(c21)CCC(O)CC4)C(=O)NC3=O (stereo unspecified)
2. CCOC(=O)Nc1c(C#N)[n+]([O-])c2cc(Cl)c(Cl)cc2[n+]1[O-]
3. C=CCOc1ccccc1N=N/C(C#N)=N\Nc1ccccc1OCC=C
4. Cc1c(C(=O)c2ccccc2C(=O)O)c2ccccc2n1C

Response given:
["21.5 µM", "28.6 µM", "> 100 µM", "> 100 µM"]

----------
Target or system HCT-15 colon; recorded quantity GI50.

# example entries with known answers
| SMILES STRUCTURE | ASSAY RESULT |
| --- | --- |
| COCCOC(=O)NC(=O)Nc1ccc(/C(=N/O)c2ccc(Cl)cc2)cc1 | 84.2 nM |
| C=C1C(=O)O[C@H]2[C@H]1CC/C(COC(=O)NCc1ccc(Cn3c(=O)sn(CCCCl)c3=O)cc1)=C\CC[C@@]1(C)O[C@@H]21 | 1940 nM |

Items follow; give GI50 for each.
1. O=c1nc(Nc2cccc(Cl)c2)oc2cc(Cl)oc(=O)c12
2. CC(=O)[C@@H]1CCC=C2CC[C@]3(C)[C@@H](CC[C@@H]4[C@@]5(C)CCCNC(C)(C)[C@@H]5CC[C@]43C)[C@H]21
3. N#Cc1cnc2cc(OC[C@@H](O)CO)c(NC(=O)CC3CSSC3)cc2c1Nc1ccc(OCc2cccc(F)c2)c(Cl)c1
4. Nc1nnc2cc(Cl)ccc2n1
5. CC(C)=CC(=O)O[C@H]1C(=O)O[C@@H]2C[C@H]3[C@H](C)C(=O)C(O[C@@H]4O[C@H](CO)[C@@H](O)[C@H](O)[C@H]4O)=C[C@]3(C)[C@H]3[C@@H](O)[C@H](O)[C@]4(C(=O)O)OC[C@]32[C@@H]14
6. O=C(Nc1ccc(F)cc1)c1c(NC(=O)C(F)(F)F)sc2c1CCCCC2

Response given:
5820 nM
1440 nM
1630 nM
> 100000 nM
> 100000 nM
2590 nM

----------
System: ACHN renal
Test: NCI tumour cell line growth inhibition, 48 h
ENDPOINT: TGI (µM)
Numbers only, in µM.

# example entries with known answers
| SMILES STRUCTURE | UNITS LABEL | TGI |
| --- | --- | --- |
| Cn1c(=O)nc2n(-c3cccc(F)c3)c3ccccc3nc-2c1=O | µM | 68.2 |
| O=C(O)/C(=C/c1c(O)ccc2ccccc12)c1csc(-c2nc(/C(=C\c3c(O)ccc4ccccc34)C(=O)O)cs2)n1 | µM | 18.8 |
| O=C1CSC(/C(=C\c2ccc(Cl)cc2)c2nc3ccccc3[nH]2)=N1 | µM | 19 |
| Cn1c(=O)c2c(nc3n(Cc4ccccc4)c(=O)c(NCCBr)cn23)n(C)c1=O | µM | 32.3 |

// below: TGI requested for another compound
Challenge: Give the reported TGI for this compound. `O=c1c(SSc2coc3cc(F)ccc3c2=O)coc2cc(F)ccc12`
Response given: 26.1

----------
Test system: KM12 colon
Assay: NCI tumour cell line growth inhibition, 48 h
Provide the recorded TGI for the entries that follow.

| COMPOUND | TGI |
| --- | --- |
| C=C1C(=O)OC2(C)C3CCC(C3)C12 (configuration not stated) | > 100 µM |
| O=c1nc(Nc2cccc(Cl)c2)oc2cc(Cl)oc(=O)c12 | 31.8 µM |
| Cc1sc(C)c(Cc2c(C)sc(C)c2CCl)c1CCl | > 100 µM |
| Cc1ccc(OCC2OC(n3cnc4nc(Cl)nc(Cl)c43)CC2Oc2ccc(C)cc2)cc1 (configuration not stated) | 23.7 µM |
| COc1ccc2cc1Oc1ccc(cc1)C(Sc1ccccc1)CCOC(=O)CC2 (configuration not stated) | > 100 µM |

Items follow; give TGI for each.
1. O=c1[nH]nc(-c2ccccc2)n1/N=C/c1ccncc1
2. CC(=O)N1CCc2c([nH]c3ccc(Br)cc23)C1c1ccccc1 (configuration not stated)
3. COc1ccc2c(c1OC)C1=C(C2=O)c2cc3c(cc2CCN1)OCO3
4. CC(=O)NCCC1CN(C(=O)/C=C\C#C[Si](C)(C)C)c2ccccc21 (configuration not stated)
5. Nc1nnc2cc(Cl)ccc2n1
6. CCCCCCCC(=O)OC(CBr)COC(=O)C(C)(C)C (configuration not stated)

Response given:
1. > 100 µM
2. > 10 µM
3. 78 µM
4. > 100 µM
5. > 100 µM
6. > 100 µM

Challenge: Give the reported TGI for this compound. `Cn1ncc2c(N)nc(N3CCCCC3)nc21`
Response given: 82.8 µM

Where do these numbers come from? They come from PubChem BioAssay (NCI).
